Record form. Attribute: cell count. Fill in for each entry.
- Measurement description: inhibitors of TNFa-induced NFkB p65 translocation, primary screen, imaging, HUVEC, MLSMR starter and 10KST1 sets (AID 438);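 further: compound added about 3h40 before a 20 min TNFalpha stimulation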
- Condition context: HUVEC TNFa-induced p65 nuclear translocation; measured here: nuclei count (cytotoxicity indicator), at 2.08 µM

As a guide, the following entries are already answered.
Molecule | cell count
COCCNC(=O)C(C#N)c1nc2ccccc2nc1N1CCN(Cc2ccc3c(c2)OCO3)CC1 (stereo not drawn) | 737
OCCOCCNc1ncnc2c1cnn2-c1ccc(Cl)cc1 | 578

Continue with the next molecule.
I am curious: what cell count value has been reported for `Cc1cc(C)nc(SCC(=O)Nc2ncc3c(n2)CCCC3=O)n1` ?
188

###

- Measurement description: inhibitors of poly I:C-induced TLR3 signaling, primary screen, cell-based, poly I:C stimulus, luciferase, 10K MLSCN set (AID 602277)
- Condition context: HEK293-TLR3 RL24 IRF3 luciferase reporter, at 10 µM, stronger effect = higher value
Active and inactive are the calls of the source.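 How the source made its calls: active means inhibition of the reporter signal at or above 50%; inactive means inhibition below 50%.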
For each entry below, report its inhibition value.

// solved cases for inhibition follow
Compound | Assay readout | Assay result
COCCNC(=O)C1CCCN(c2ncccn2)C1 (configuration not stated) | inhibition | 20.8% (inactive)
CCc1ccc(NC(=O)CS(=O)CC(=O)NCC2OCCc3ccccc32)cc1 (configuration not stated) | inhibition | 13.4% (inactive)
CCOC(=O)c1ccc(Oc2cc(C)nc(SC)n2)cc1 | inhibition | 19.9% (inactive)
CC1=C(C(=O)N2CCCCC2)C(c2cccs2)C2=C(CCCC2=O)N1 (configuration not stated) | inhibition | 6.53% (inactive)
Cc1ccc(C)c(NC(=O)CC(NCCCN2CCOCC2)C(=O)O)c1 (configuration not stated) | inhibition | 20.7% (inactive)
CCCNS(=O)(=O)c1ccc(OCC(=O)NCc2ccco2)cc1 | inhibition | -17.4% (inactive)
O=C(CN1C(=O)c2ccccc2S1(=O)=O)NCc1ccccn1 | inhibition | 26.2% (inactive)
CS(=O)(=O)N(Cc1ccco1)CC(O)Cn1c2ccccc2c2ccccc21 (configuration not stated) | inhibition | 35.1% (inactive)
O=c1[nH]c(NCc2ccccc2)nc2c1CCCC2 | inhibition | -4.72% (inactive)
Cc1nc(NC(=O)c2ccccc2)sc1-c1csc(NCc2ccco2)n1 | inhibition | -13.8% (inactive)

// each listed compound needs a value for inhibition
1. Cc1nn(CC(O)Cn2c3c(c4ccccc42)CCN(C)C3=O)c(C)c1Br (configuration not stated)
2. CCCCCC1CC(CC(=O)O)C(=O)O1 (configuration not stated)
3. CCOC(=O)c1sc(NC(=O)CSc2nnc(-c3ccc(OC)cc3)n2CCOC)nc1C
4. Cc1ccc(-c2noc(CCC(=O)N3CCN(c4cccc(C(F)(F)F)c4)CC3)n2)cc1
5. CCSc1nc2c(c(=O)[nH]1)C(c1cccnc1)C(C(=O)OC(C)C)=C(C)N2 (configuration not stated)
6. Cc1c(C(=O)NCc2ccccn2)sc2nc(-c3ccc(F)cc3)cn12

21.9% (inactive)
23.6% (inactive)
24.5% (inactive)
6.71% (inactive)
25.7% (inactive)
-13.7% (inactive)

# per-item lookup of inhibition; items listed below
1. CCOC(=O)c1c(C)c(C(=O)NCCN2CCOCC2)c(C)n1C
2. O=C1NC(Nc2ccccn2)(C(F)(F)F)C(=O)N1c1ccc(F)cc1 (configuration not stated)
3. Cc1nc2sc(C(c3ccc(Br)cc3)N3CC(C)OC(C)C3)c(O)n2n1 (configuration not stated)
4. CCC(C)(C)n1nnnc1C(c1cc2cc(OC)ccc2[nH]c1=O)N1CCc2ccccc21 (configuration not stated)
5. Cn1c(C(=O)N2CCCC(C(=O)NCCCc3ccccc3)C2)cc2sccc21 (configuration not stated)
6. COc1ccc(Br)cc1CNC(=O)CCc1nc(-c2ccc(C)cc2)no1

1. 22.1% (inactive)
2. 6.37% (inactive)
3. 17.4% (inactive)
4. 29.5% (inactive)
5. -2.49% (inactive)
6. 28.1% (inactive)

Record inhibition for all entries; do not skip any.
1. COc1ccc(S(=O)(=O)Nc2ccc3c(c2)OCO3)cc1Cl
2. O=C(NCCC1=CCCCC1)C1CC(=O)N(C2CCCCCC2)C1 (configuration not stated)
3. COc1ccc(Br)cc1S(=O)(=O)N1CC(C)OC(C)C1 (configuration not stated)
4. CC1NC2(C(=O)N(Cc3ccccc3)c3ccccc32)C2C(=O)N(c3ccccc3)C(=O)C12 (configuration not stated)
5. COc1ccc(CCNC(=O)C2CC(=O)N(c3ccccc3)C2)cc1OC (configuration not stated)
6. Cn1c(=O)c2c(nc(NCCNC(=O)c3ccco3)n2Cc2ccccc2Cl)n(C)c1=O

1. 12.9% (inactive)
2. 27.5% (inactive)
3. 9.82% (inactive)
4. 26% (inactive)
5. 25.7% (inactive)
6. 2.32% (inactive)

For each entry beneath this line, provide reported inhibition.
1. O=C1CCCN1CCCNc1ncnc2c1[nH]c1ccc(Cl)cc12
2. O=C(CSc1ncnc2c1cnn2Cc1ccccc1)Nc1ccc2c(c1)OCCO2
3. Nc1nc2n(n1)C(c1cccc(Br)c1)CC(c1ccc(F)cc1)N2 (configuration not stated)
4. CC(=O)Nc1c(C(=O)C2CC2)oc2ccccc12
5. CCOCCCNC(=O)C(NC(=O)c1ccccn1)c1ccc(C)cc1 (configuration not stated)
6. CC1CCCCC1NC(=O)CN1CCN(Cc2ccccc2Cl)C1=O (configuration not stated)
7. O=C(Cn1ncc2c(=O)oc3ccccc3c21)NCC1CCCO1 (configuration not stated)

1. -66.1% (inactive)
2. 17.7% (inactive)
3. 15.8% (inactive)
4. 2.69% (inactive)
5. 18.1% (inactive)
6. 20.3% (inactive)
7. 9.41% (inactive)

Okay, here is my list. What is inhibition for each of these?
1. COc1ccc(N(CC(=O)O)S(=O)(=O)c2ccc(OC)c(OC)c2)cc1
2. Cc1ccccc1OCC(O)CN (configuration not stated)
3. O=C(C1CCN(c2nnnn2-c2ccccc2)CC1)N1CCN(c2ccccc2)CC1
4. O=C(CN1CCN(c2ncccn2)CC1)Nc1ccccc1-n1cccc1

1: 22.3% (inactive); 2: -17.4% (inactive); 3: 22.4% (inactive); 4: 8.32% (inactive)

Working through the 3 compounds below one at a time, give inhibition for each.
1. O=C(CSc1nnc2c3cc(F)ccc3nc(-c3ccccc3)n12)N1CCOCC1
2. CC(C)(C)Nc1nc(NC(C)(C)C)nc(-n2ccnc2)n1
3. O=C(CSc1nnc2scc(-c3ccccc3)n12)Nc1nsc(-c2ccccc2)n1

-0.765% (inactive)
29% (inactive)
-32.6% (inactive)
